System: Colorado Potato Beetle (CPB, Leptinotarsa decemlineata)
Experiment: Colorado Potato Beetle dipping bioassay (foliar method) with potato plants
Format: in vivo
Conditions: Leptinotarsa decemlineata, foliar, 120 h, leaf dipping, 2nd instar CPB, 5 days after infest, control corrected, read-out: Mortality of CPB (%), Control corrected
Source text: 2. Method: Colorado Potato Beetle (CPB, Leptinotarsa decemlineata) Dipping Bioassay (Foliar Method) with Potato Plants Serial dilutions of TGAI are made in 50:50 (acetone: H2O) 0.01% kinetic solvent solution. Potato plant true leaves are snipped off the plant, treated by dipping method in a bowl with acetone-resistant plastic liner and inserted into a glass flask filled with water of the stem part to prevent dehydration of the leaves. […] Both plant feeding damage and mortality of CPB were evaluated.
Recorded measurements of mortality at 100 ppm, one per entry
Include the unit after the number when you answer.

Inquiry: // query mortality at 100 ppm value for entry C[n+]1c([O-])c(-c2ccccc2)c(=O)n2c1SC[C@@H]2c1cnc(Cl)s1
Reply text: 80%

Inquiry: // query mortality at 100 ppm value for entry C[n+]1c([O-])c(-c2ccccc2)c(=O)n2c1CCC2c1cnc(Cl)s1 (stereo not shown) [Compound C-6, reference compound]
Reply text: 0%

Inquiry: // query mortality at 100 ppm value for entry C[n+]1c([O-])c(-c2ccccc2)c(=O)n2c1OCC2c1cnc(Cl)s1 (stereo not shown) [Compound C-19, reference compound]
Reply text: 3.33%

Inquiry: // query mortality at 100 ppm value for entry C[n+]1c([O-])c(-c2ccccc2)c(=O)n2c1SCC2c1cnc(Cl)s1 (racemic)
Reply text: 56.7%

----------
system: Colorado Potato Beetle (CPB, Leptinotarsa decemlineata); experiment: Colorado Potato Beetle dipping bioassay (foliar method) with potato plants; assay type: in vivo; conditions: 100 ppm, leaf dipping, 2nd instar CPB, 5 days after infest, control corrected
Recorded measurements of Feeding damage protection of potato plants (%), Control corrected, one per entry
Numeric answer only, unit % assumed.

compound	measuredValue
C[n+]1c([O-])c(-c2ccccc2)c(=O)n2c1SCC2c1cnc(Cl)s1 (racemic)	88.60
C[n+]1c([O-])c(-c2ccccc2)c(=O)n2c1SC[C@@H]2c1cnc(Cl)s1	90.40
C[n+]1c([O-])c(-c2ccccc2)c(=O)n2c1OCC2c1cnc(Cl)s1 (stereo not shown) [Compound C-19, reference compound]	0.00

Now look at this one.
Inquiry: // query Feeding damage protection of potato plants (%), Control corrected value for entry C[n+]1c([O-])c(-c2ccccc2)c(=O)n2c1CCC2c1cnc(Cl)s1 (stereo not shown) [Compound C-6, reference compound]
Reply text: 7.00

----------
system: Colorado Potato Beetle (CPB, Leptinotarsa decemlineata); experiment: Colorado Potato Beetle dipping bioassay (foliar method) with potato plants; format: in vivo; conditions: 100 ppm
resultType: Activity against CPB by potato plant dipping assay

molecule	measuredValue
C[n+]1c([O-])c(-c2ccccc2)c(=O)n2c1OCC2c1cnc(Cl)s1 (stereo not shown) [Compound C-19, reference compound]	inactive
C[n+]1c([O-])c(-c2ccccc2)c(=O)n2c1CCC2c1cnc(Cl)s1 (stereo not shown) [Compound C-6, reference compound]	inactive
C[n+]1c([O-])c(-c2ccccc2)c(=O)n2c1SCC2c1cnc(Cl)s1 (racemic)	active
C[n+]1c([O-])c(-c2ccccc2)c(=O)n2c1SC[C@@H]2c1cnc(Cl)s1	active

Taken from patent US12532887B2.
